target: Neuronal acetylcholine receptor; alpha3/beta4 (Homo sapiens, UniProt P30926+P32297); assay: Agonist activity at human alpha3beta4 nAChR expressed in CHO cells at 10 uM by electrophysiological analysis relative to acetylcholine; type: cell-based
The entries below are paired with their reported Activity.
Answer format: numeric, % implied, no suffix.

query: Activity for c1ccc(C(c2ccccc2)[N+]23CCN(CC2)CC3)cc1 ?
result: 0.5

query: Another compound to look at: c1ccc(C[N+]23CCC(CC2)C(C(c2ccccc2)c2ccccc2)C3)cc1 (stereo not drawn)
result: 0.4

query: Another compound to look at: C(=C1/CN2CCC1CC2)/c1ccccc1
result: 7
